Cited source for all entries: ChEMBL document CHEMBL2417506

test system: Plasmodium falciparum; assay: Antimalarial activity against Plasmodium falciparum 3D7 infected in human O positive erythrocytes assessed as reduction of parasite growth after 24 to 44 hrs by Giemsa staining; assay type: functional, organism-based
ASSAY_METRIC: IC50

Past entries and their recorded results:
Can you look up the measured IC50 of COc1cc(-c2c3nc(cc4ccc([nH]4)c(-c4cc(OC)c(OC)c(OC)c4)c4nc(cc5ccc2[nH]5)C=C4)C=C3)cc(OC)c1OC for me?
> 20 µM

Entry O=Cc1c2nc(c(-c3cccc(Br)c3)c3ccc(cc4nc(c(-c5cccc(Br)c5)c5ccc1[nH]5)C=C4)[nH]3)C=C2 has what IC50?
> 20 µM

Could you now consider this next compound?
State the recorded IC50 for this entry: C1=Cc2nc1cc1ccc([nH]1)c(-c1ccccc1)c1nc(cc3ccc([nH]3)c2-c2ccccc2)C=C1
> 20 µM
